B1: PTPN9 (parent)
chain: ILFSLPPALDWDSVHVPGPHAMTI

# Variants of: B1
# assay_name: protein stability index of a GFP-peptide fusion (GPS, HEK-293T) (PSI 1-6); higher = more stable;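 note: lentivirally expressed fusions sorted by FACS into six bins by GFP to DsRed ratio, PSI derived from sequencing read proportions per bin multiplied by bin number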
# particulars: c terminus: a fixed tail appended
Outcome label depends on protein stability index relative to 2: at/above gives fulfilled, below gives not fulfilled.

# input Reported protein stability index reaches at least 2 for ILCSLPPALDWDSVHVPGPHAMTI ?
# output fulfilled

# input Reported protein stability index reaches at least 2 for ILFSLPPALGWDSVHVPGPHAMTI ?
# output fulfilled

# input Reported protein stability index reaches at least 2 for YLFSLPPALDWDSVHVPGPHAMTI ?
# output fulfilled

# input Reported protein stability index reaches at least 2 for ILFSLPPALDWDMVHVPGPHAMTI ?
# output fulfilled

# input Reported protein stability index reaches at least 2 for ILFSLPPALDWDSVHDPGPHAMTI ?
# output fulfilled

# input Reported protein stability index reaches at least 2 for IMFSLPPALDWDSVHVPGPHAMTI ?
# output fulfilled

# input Reported protein stability index reaches at least 2 for ILFSLPPALDWDSVHVPGPHAATI ?
# output fulfilled

# input Reported protein stability index reaches at least 2 for ILFSLPPALDWDSVHVPGPHAITI ?
# output fulfilled

# input Reported protein stability index reaches at least 2 for ILRSLPPALDWDSVHVPGPHAMTI ?
# output fulfilled

# input Reported protein stability index reaches at least 2 for ILFSLPPALDWDSVHVPGPGAMTI ?
# output fulfilled

# input Reported protein stability index reaches at least 2 for ILFSLPPALDWWSVHVPGPHAMTI ?
# output fulfilled

# input Reported protein stability index reaches at least 2 for ILASLPPALDWDSVHVPGPHAMTI ?
# output not fulfilled

# input Reported protein stability index reaches at least 2 for ILFSLPPALDWDDVHVPGPHAMTI ?
# output fulfilled

# input Reported protein stability index reaches at least 2 for ILFSLPPALDRDSVHVPGPHAMTI ?
# output fulfilled

# input Reported protein stability index reaches at least 2 for ILFSLPPALDWDSVHVPEPHAMTI ?
# output fulfilled

# input Reported protein stability index reaches at least 2 for ILFSLPPALDWDSVPVPGPHAMTI ?
# output fulfilled

# input Reported protein stability index reaches at least 2 for ILFSLPPALHWDSVHVPGPHAMTI ?
# output fulfilled

# input Reported protein stability index reaches at least 2 for ILFSLPPALDWDSVHVSGPHAMTI ?
# output fulfilled

# input Reported protein stability index reaches at least 2 for ILFSLPMALDWDSVHVPGPHAMTI ?
# output not fulfilled

# input Reported protein stability index reaches at least 2 for ILFSLPPALDWDPVHVPGPHAMTI ?
# output fulfilled

# input Reported protein stability index reaches at least 2 for ILFSEPPALDWDSVHVPGPHAMTI ?
# output not fulfilled

# input Reported protein stability index reaches at least 2 for ILFSLPPALDCDSVHVPGPHAMTI ?
# output fulfilled

# input Reported protein stability index reaches at least 2 for ILFSLPPALDWDSVHVPGHHAMTI ?
# output fulfilled

# input Reported protein stability index reaches at least 2 for ILFSDPPALDWDSVHVPGPHAMTI ?
# output fulfilled

# input Reported protein stability index reaches at least 2 for IDFSLPPALDWDSVHVPGPHAMTI ?
# output not fulfilled

# input Reported protein stability index reaches at least 2 for ILFSLPPALDWDSYHVPGPHAMTI ?
# output fulfilled

# input Reported protein stability index reaches at least 2 for ILFSVPPALDWDSVHVPGPHAMTI ?
# output fulfilled

# input Reported protein stability index reaches at least 2 for ILFSLPPALNWDSVHVPGPHAMTI ?
# output not fulfilled

# input Reported protein stability index reaches at least 2 for ILFSLPPQLDWDSVHVPGPHAMTI ?
# output fulfilled

# input Reported protein stability index reaches at least 2 for ILFSLPPALDWDSVHVPGPRAMTI ?
# output fulfilled

# input Reported protein stability index reaches at least 2 for ILFSLPPALDWDSSHVPGPHAMTI ?
# output fulfilled
